Where do the numbers come from? From the RNAGym collection of RNA variant scans (doi:10.7554/elife.90254).

Recorded self-cleavage, one value per entry.
B1: LINE1-full (parent)
chain: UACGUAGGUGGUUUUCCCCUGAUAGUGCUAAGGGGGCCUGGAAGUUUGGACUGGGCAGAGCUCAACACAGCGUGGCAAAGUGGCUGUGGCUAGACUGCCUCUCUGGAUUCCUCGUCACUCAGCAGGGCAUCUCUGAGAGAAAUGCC

Variants of: B1
method: self-cleavage, relative activity (ratio to wild type); higher = more cleavage; in vitro, sequencing; the parent is a self-cleaving ribozyme
readout-type: self-cleavage

>  <mutant-label>
A92G U102C

>  <assay-result>
0.11

$$$$
>  <mutant-label>
G106A U132A

>  <assay-result>
0.61

$$$$
>  <mutant-label>
U14C U115C

>  <assay-result>
1.31

$$$$
>  <mutant-label>
U23C A65G

>  <assay-result>
0.1

$$$$
>  <mutant-label>
C3U A50G

>  <assay-result>
0.33

$$$$
>  <mutant-label>
U112A A136G

>  <assay-result>
1.71

$$$$
>  <mutant-label>
A77G C145U

>  <assay-result>
2.12

$$$$
>  <mutant-label>
U1C U52C

>  <assay-result>
1.38

$$$$
>  <mutant-label>
U5A A22G

>  <assay-result>
0.73

$$$$
>  <mutant-label>
U12G C84U

>  <assay-result>
0.2

$$$$
>  <mutant-label>
A94G U100A

>  <assay-result>
0.21

$$$$
>  <mutant-label>
U13C C90U

>  <assay-result>
0.04

$$$$
>  <mutant-label>
A64G C131U

>  <assay-result>
0.33

$$$$
>  <mutant-label>
A24U A124G

>  <assay-result>
1.06

$$$$
>  <mutant-label>
U23G U112C

>  <assay-result>
1.07

$$$$
>  <mutant-label>
A57C U132G

>  <assay-result>
0

$$$$
>  <mutant-label>
G49A A141G

>  <assay-result>
1.64

$$$$
>  <mutant-label>
U20G A140U

>  <assay-result>
1.23

$$$$
>  <mutant-label>
A24G U52A

>  <assay-result>
0.79

$$$$
>  <mutant-label>
U45C C56A

>  <assay-result>
0.06

$$$$
>  <mutant-label>
G74U A94G

>  <assay-result>
0.15

$$$$
>  <mutant-label>
G48A A129G

>  <assay-result>
1.54

$$$$
>  <mutant-label>
U109C U143A

>  <assay-result>
1.18

$$$$
>  <mutant-label>
G7U U91A

>  <assay-result>
1.12

$$$$
>  <mutant-label>
G34A U130C

>  <assay-result>
1.32

$$$$
>  <mutant-label>
U73G A77U

>  <assay-result>
1.14

$$$$
>  <mutant-label>
A69U U73G

>  <assay-result>
0.31

$$$$
>  <mutant-label>
U9C G126U

>  <assay-result>
1.68

$$$$
>  <mutant-label>
G36A U143C

>  <assay-result>
1.57

$$$$
>  <mutant-label>
G70A U115G

>  <assay-result>
0.11

$$$$
>  <mutant-label>
A67G C68A

>  <assay-result>
0.05

$$$$
>  <mutant-label>
U108A A129G

>  <assay-result>
0.99

$$$$
>  <mutant-label>
A117C U143A

>  <assay-result>
1.38

$$$$
>  <mutant-label>
U13A G137A

>  <assay-result>
1.13

$$$$
>  <mutant-label>
U45C G106U

>  <assay-result>
1.17

$$$$
>  <mutant-label>
U5C U134C

>  <assay-result>
0.33

$$$$
>  <mutant-label>
U1C U102C

>  <assay-result>
1.03

$$$$
>  <mutant-label>
C18A U109A

>  <assay-result>
1.71

$$$$
>  <mutant-label>
A6G A57G

>  <assay-result>
0.64

$$$$
>  <mutant-label>
G10A C99A

>  <assay-result>
0.42

$$$$
>  <mutant-label>
U12C U102A

>  <assay-result>
1.66

$$$$
>  <mutant-label>
U15C G82A

>  <assay-result>
1.92

$$$$
>  <mutant-label>
G7A U115C

>  <assay-result>
1.21

$$$$
>  <mutant-label>
U20C A140C

>  <assay-result>
2.05

$$$$
>  <mutant-label>
U115C

>  <assay-result>
1.58

$$$$
>  <mutant-label>
U91C

>  <assay-result>
0.67

$$$$
>  <mutant-label>
G4C U91A

>  <assay-result>
0.75

$$$$
>  <mutant-label>
C66U U85C

>  <assay-result>
0.02

$$$$
>  <mutant-label>
U13G C113U

>  <assay-result>
1.11

$$$$
>  <mutant-label>
U47A G125A

>  <assay-result>
1.11

$$$$
>  <mutant-label>
U14A A24U

>  <assay-result>
0.77

$$$$
>  <mutant-label>
A50U A141U

>  <assay-result>
0.68

$$$$
>  <mutant-label>
U109C U132A

>  <assay-result>
1.14

$$$$
>  <mutant-label>
U46C A92U

>  <assay-result>
0.76

$$$$
>  <mutant-label>
G25A

>  <assay-result>
1.21

$$$$
>  <mutant-label>
G53A A107G

>  <assay-result>
1.28

$$$$
>  <mutant-label>
U12C G55A

>  <assay-result>
0.64

$$$$
>  <mutant-label>
A43G A107U

>  <assay-result>
0.7

$$$$
>  <mutant-label>
U46G A117G

>  <assay-result>
2.26

$$$$
>  <mutant-label>
G54A A65U

>  <assay-result>
0.1

$$$$
>  <mutant-label>
A57U G106U

>  <assay-result>
0.09

$$$$
>  <mutant-label>
U47G A77U

>  <assay-result>
0.94

$$$$
>  <mutant-label>
G54A U119C

>  <assay-result>
1.35

$$$$
>  <mutant-label>
U14C A22U

>  <assay-result>
2.36

$$$$
>  <mutant-label>
U12C A30G

>  <assay-result>
0.87

$$$$
>  <mutant-label>
U62C U73C

>  <assay-result>
0.07

$$$$
>  <mutant-label>
A69G A117U

>  <assay-result>
0.64

$$$$
>  <mutant-label>
A77G A117U

>  <assay-result>
2.58

$$$$
>  <mutant-label>
U9A U12G

>  <assay-result>
0.67

$$$$
>  <mutant-label>
G7U U132C

>  <assay-result>
1.23

$$$$
>  <mutant-label>
A121U U143G

>  <assay-result>
2

$$$$
>  <mutant-label>
U23A U62A

>  <assay-result>
0.05

$$$$
>  <mutant-label>
U52C C98A

>  <assay-result>
0.1

$$$$
>  <mutant-label>
U91A U143G

>  <assay-result>
0.56

$$$$
>  <mutant-label>
U12C A64C

>  <assay-result>
0.7

$$$$
>  <mutant-label>
U12C C71U

>  <assay-result>
0.9

$$$$
>  <mutant-label>
G53U U143C

>  <assay-result>
1.14

$$$$
>  <mutant-label>
A42G U52C

>  <assay-result>
1.17

$$$$
>  <mutant-label>
G53A U102G

>  <assay-result>
0.68

$$$$
>  <mutant-label>
U12A U73A

>  <assay-result>
1.47

$$$$
>  <mutant-label>
U52A U115C

>  <assay-result>
1.42

$$$$
>  <mutant-label>
U102A

>  <assay-result>
1.21

$$$$
>  <mutant-label>
U47A A117C

>  <assay-result>
1.32

$$$$
>  <mutant-label>
A2G C66U

>  <assay-result>
0.4

$$$$
>  <mutant-label>
U1C U52G

>  <assay-result>
1.33

$$$$
>  <mutant-label>
U45C U85A

>  <assay-result>
0.12

$$$$
>  <mutant-label>
G49C A121G

>  <assay-result>
0.93

$$$$
